Hey, just so you know, these numbers are from patent US20100215579A1.

Assay: Biodistribution in ICR mice after an iv injection
Assay type: in vivo
Conditions: Heart, 2 min after iv injection
Text: Biodistribution in ICR Mice After an iv Injection of [^18F][4-(6-{2-[2-(2-Fluoro-ethoxy)-ethoxy]-ethoxy}-naphthalen-2-yl)-phenyl]-methyl-amine in 1% EtOH/0.1% BSA in Water (% dose/organ, avg of 3 mice±SD) (% dose/g, avg of 3 mice±SD) Biodistribution in ICR Mice After an iv Injection of [^18F]19a in 3% EtOH/0.1% BSA in Water Biodistribution in ICR Mice After an iv Injection of [^18F]34a in 5% EtOH/0.1% BSA in Water […]
property: % dose/g (% dose/g)

> print(dat)
                                   compound  reported.value
1  CN(C)c1ccc(-c2ccc3nc(OCCOCCOCC[18F])ccc3c2)cc1 [[^18F]32a]            10.1
2  CNc1ccc2cc(-c3ccc(OCCOCCOCC[18F])cc3)ccc2c1 [[^18F]19a]            5.67
3   CNc1ccc(-c2ccc3cc(OCCOCCOCCF)ccc3c2)cc1            5.44
4  CNc1ccc(-c2ccc3nc(OCCOCCOCC[18F])ccc3c2)cc1 [[^18F]34a]            10.7
